Reference source: paper PMC6748986

Provide the reported Inh% (100-Act%) of each item.
# assay-target: CepR (Burkholderia cenocepacia, UniProt B4EMD0)
# Sequence (B4EMD0 1-239): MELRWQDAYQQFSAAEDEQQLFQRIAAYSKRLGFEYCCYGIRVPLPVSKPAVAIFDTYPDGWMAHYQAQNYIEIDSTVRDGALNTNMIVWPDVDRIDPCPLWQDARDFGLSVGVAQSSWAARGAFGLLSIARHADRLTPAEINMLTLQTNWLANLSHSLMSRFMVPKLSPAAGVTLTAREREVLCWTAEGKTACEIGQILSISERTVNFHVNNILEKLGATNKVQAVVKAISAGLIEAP
# assay-info: CepR antagonism in E. coli β-galactosidase reporter (Ec-reporter), competition against C8-AHL
# Type: cell-based, B. cenocepacia
# recorded-conditions: Table S3, Ec-reporter; screening conc. 100 μM; against 10 nM C8-AHL
Give just the number in %; leave the unit off.

Note to self: Inh% (100-Act%) recorded for O=C(N[C@H]1CCOC1=O)c1ccccc1 was 1.0

Note to self: Inh% (100-Act%) recorded for O=C(N[C@H]1CCOC1=O)c1ccc(Oc2ccc(Br)cc2)cc1 was -40

Note to self: Inh% (100-Act%) recorded for O=C(Cc1cccc([N+](=O)[O-])c1)NC1CCCC1 was -20

Note to self: Inh% (100-Act%) recorded for O=C(CCCc1c[nH]c2ccccc12)N[C@@H]1CCOC1=O was -30

Note to self: Inh% (100-Act%) recorded for CCCCCCCCCC(=O)CC(=O)Nc1ccccc1O [Control 14, reference compound] was 30

Note to self: Inh% (100-Act%) recorded for O=C(NCc1cc(Br)cc(Br)c1OC(=O)c1ccccc1[N+](=O)[O-])c1ccccc1Cl [TP-1P, reference compound] was 0.0

Note to self: Inh% (100-Act%) recorded for Cc1cccc(OCC(=O)N[C@H]2CCOC2=O)c1 was 21

Note to self: Inh% (100-Act%) recorded for O=C(CCc1ccccc1)N[C@H]1CCOC1=O was -40

Note to self: Inh% (100-Act%) recorded for COc1ccc(OCC(=O)N[C@H]2CCOC2=O)cc1 was 0.0

Note to self: Inh% (100-Act%) recorded for O=C(Cc1cccc(F)c1)N[C@H]1CCOC1=O was 20

Note to self: Inh% (100-Act%) recorded for CCCCCCC(=O)N[C@H]1CCOC1=O [Compound C7-AHL, reference compound] was -10

Note to self: Inh% (100-Act%) recorded for O=C(Cc1c(F)c(F)c(F)c(F)c1F)N[C@H]1CCOC1=O was -30

Note to self: Inh% (100-Act%) recorded for O=C(CCCC1CCCCC1)N[C@H]1CCOC1=O was -10

Note to self: Inh% (100-Act%) recorded for COc1cccc(OCC(=O)N[C@H]2CCOC2=O)c1 was 0.0

Note to self: Inh% (100-Act%) recorded for O=C(Cc1ccc(Br)cc1)NC1CCSC1=O (stereo not shown) was 6.0

Note to self: Inh% (100-Act%) recorded for Cc1ccc(C(=O)N[C@H]2CCOC2=O)cc1 was -20

Note to self: Inh% (100-Act%) recorded for O=C(N[C@H]1CCOC1=O)c1ccc([N+](=O)[O-])cc1 was 28

Note to self: Inh% (100-Act%) recorded for O=C(COc1ccc(OC(F)(F)F)cc1)N[C@H]1CCOC1=O was -20

Note to self: Inh% (100-Act%) recorded for O=C(CCc1ccc(Cl)cc1)N[C@H]1CCOC1=O was -10

Note to self: Inh% (100-Act%) recorded for O=C(Cc1ccc(-c2ccccc2)cc1)NC1CCCC1 was -10

Note to self: Inh% (100-Act%) recorded for CCCOc1ccc(C(=O)N[C@H]2CCOC2=O)cc1 was -10

Note to self: Inh% (100-Act%) recorded for CSc1ccc(CC(=O)N[C@H]2CCOC2=O)cc1 was -10

Note to self: Inh% (100-Act%) recorded for COc1ccc(CC(=O)NC2CCSC2=O)cc1 (stereo not shown) was -20

Note to self: Inh% (100-Act%) recorded for O=C(CC(O)Cc1cccc(I)c1)N[C@H]1CCOC1=O (stereo partly shown) was 18

Note to self: Inh% (100-Act%) recorded for CCCCCCCCCCCCn1nnc(CC(=O)O)n1 [PD-12, reference compound] was -40
